system: barnyardgrass (Echinochloa crus-galli); assay: Test A postemergence, barnyardgrass; assay type: in vivo; conditions: 500 g ai/ha, 0 to 100 scale, 0 no effect, 100 complete control
Observed property: Plant response rating, Barnyardgrass
Quick one: just the number, no unit, thanks!

q: I'm curious: which Plant response rating, Barnyardgrass was measured for CC(Nc1nc(N)c(C(F)(F)F)c(C(F)(F)F)n1)c1coc2ccccc12 (stereo not drawn) tested on barnyardgrass (Echinochloa crus-galli)?
a: 0

q: Record lookup: for barnyardgrass (Echinochloa crus-galli), what Plant response rating, Barnyardgrass belongs to CC(Nc1ncc([N+](=O)[O-])c(N)n1)c1cc2ccccc2s1 (stereo not drawn) ?
a: 70

q: What measured Plant response rating, Barnyardgrass is associated with CC[C@H](Nc1ncc(C(F)(F)F)c(N)n1)c1coc2ccccc12 on barnyardgrass (Echinochloa crus-galli)?
a: 0

q: Request: Plant response rating, Barnyardgrass, test system barnyardgrass (Echinochloa crus-galli), entry CC(Nc1nc(N)c(C(F)(F)F)c(C(F)(F)F)n1)C1Cc2ccccc2C1 (racemic)
a: 0

q: // map C[C@@H](Nc1nc(N)c(C(F)(F)F)c(C(F)(F)F)n1)c1cc2ccccc2o1 to recorded Plant response rating, Barnyardgrass (system: barnyardgrass (Echinochloa crus-galli))
a: 0

q: Lab note: need Plant response rating, Barnyardgrass for C[C@H](Nc1nc(N)c(C(F)(F)F)c(C(F)(F)F)n1)c1cc2ccccc2s1 on barnyardgrass (Echinochloa crus-galli), anyone have it?
a: 50

q: Observed Plant response rating, Barnyardgrass on barnyardgrass (Echinochloa crus-galli) for Cc1ccc2c(C(C)Nc3ncc(C(F)(F)F)c(N)n3)coc2c1 (stereo not drawn) , please.
a: 80

q: // lookup Plant response rating, Barnyardgrass | system=barnyardgrass (Echinochloa crus-galli) | key= CC(Nc1ncc(S(C)(=O)=O)c(N)n1)c1cc2ccccc2s1 (stereo not drawn)
a: 100

q: State its Plant response rating, Barnyardgrass on barnyardgrass (Echinochloa crus-galli): C[C@@H](Nc1ncc(C(F)(F)F)c(N)n1)c1coc2cc(Cl)ccc12
a: 70

----------
Please go through the items and note down their Plant response rating, Wheat.
system: wheat (Triticum aestivum); assay: Test A postemergence, wheat; assay type: in vivo; conditions: 500 g ai/ha, 0 to 100 scale
Write the value as a bare number.

q: Form field - read-out: Plant response rating, Wheat; system: wheat (Triticum aestivum); submitted item: CCC(Nc1ncc(C#N)c(N)n1)c1cc2ccccc2o1 (racemic) [Compound 20]
a: 10

q: Lookup: Plant response rating, Wheat / wheat (Triticum aestivum) / CC(Nc1ncc(C(F)(F)F)c(N)n1)c1cc2ccccc2s1 (racemic) [Compound 16]
a: 0

q: Param readout = Plant response rating, Wheat; param system = wheat (Triticum aestivum); param query = CC(CCc1ccccc1)Nc1ncc(C(F)(F)F)c(N)n1 (stereo not drawn) [Compound 23] ; response: value
a: 0

q: Checklist item: Plant response rating, Wheat tested on wheat (Triticum aestivum), entry CC(Nc1ncc(C(F)(F)F)c(N)n1)c1csc2ccccc12 (stereo not drawn) [Compound 40] , value?
a: 0

q: Give recorded Plant response rating, Wheat with wheat (Triticum aestivum) for the following compound: Cc1ccc2oc([C@@H](C)Nc3ncc(C(F)(F)F)c(N)n3)cc2c1 [Compound 10]
a: 0

q: Value wanted: Plant response rating, Wheat (wheat (Triticum aestivum)) of entry CC[C@H](COc1cc(C)cc(C)c1)Nc1ncc(C(F)(F)F)c(N)n1 [Compound 27]
a: 20

q: Lab note: need Plant response rating, Wheat with wheat (Triticum aestivum) for entry C[C@@H](Nc1ncc(C(F)(F)F)c(N)n1)c1cc2cc(F)c(F)cc2o1 [Compounds 30] , please look it up.
a: 0

q: Identify the measured Plant response rating, Wheat of Cc1cccc(OCC(C)Nc2ncc(C(F)(F)F)c(N)n2)c1 (stereo not drawn) [Compound 32] for wheat (Triticum aestivum).
a: 0

q: Lab note: need Plant response rating, Wheat for CCC(Nc1ncc(C(F)(F)F)c(N)n1)c1cc2ccccc2o1 (racemic) [Compound 28] on wheat (Triticum aestivum), anyone have it?
a: 10

----------
test system: pigweed (Amaranthus retroflexus); assay: Test A preemergence, pigweed; type: in vivo; settings: 500 g ai/ha, 0 to 100 scale, 0 is no effect, 100 is complete control
For each record, write down the corresponding Pigweed plant response rating.
Give a plain numeric answer without units written out.

q: Fill blank: measured Pigweed plant response rating of the compound C[C@@H](Nc1ncc(C(F)(F)F)c(N)n1)c1cc2ccccc2n1C [Compound 98] is ____.
a: 100

q: Give its Pigweed plant response rating value. Item: CC[C@@H](Nc1ncc(C(F)(F)F)c(N)n1)c1cc2ccc(F)cc2o1 [Compound 63]
a: 100

q: Given the compound C[C@H](Nc1ncc(C(F)(F)F)c(N)n1)c1cc2ccc(F)cc2s1 [Compound 47] , what is its reported Pigweed plant response rating?
a: 30

q: For the compound shown here, Nc1nc(NC(c2cc3ccccc3o2)C2CC2)ncc1C(F)(F)F (stereo not drawn) [Compound 88] , give the reported Pigweed plant response rating.
a: 100

q: Reported Pigweed plant response rating, compound Cc1ccc2c([C@H](Nc3ncc(C(F)(F)F)c(N)n3)C3CC3)coc2c1 [Compound 90] : ____
a: 100

q: Which Pigweed plant response rating is listed for CC[C@H](Nc1ncc(C(F)(F)F)c(N)n1)c1cc2ccc(F)cc2s1 [Compound 49] ?
a: 0

q: Item CC(Nc1ncc(C(F)(F)F)c(N)n1)c1cc2ccc(Cl)cc2s1 (racemic) [Compound 70] has what recorded Pigweed plant response rating?
a: 90

q: Reported Pigweed plant response rating for Nc1nc(NC(c2coc3ccccc23)C2CC2)ncc1C(F)(F)F (racemic) [Compound 95] : what is it?
a: 100

q: Look up Pigweed plant response rating for this compound: C[C@@H](Nc1ncc(C(F)(F)F)c(N)n1)c1cc2c(F)cccc2o1 [Compound 73]
a: 100

----------
Please go through the items and note down their pest or weed control at 125 g/ha.
tested on: ryegrass, Italian (Lolium multiflorum); assay: Test A postemergence, Italian ryegrass; assay type: in vivo; details: Lolium multiflorum, post-emergence, 240 h, 125 g ai/ha, 0 to 100 scale, 0 no effect, 100 complete control, read-out: Plant response rating, Ryegrass, Italian
Quick note: give the figure in %, leave out the unit.

q: Would you kindly share the measured pest or weed control at 125 g/ha for C[C@@H](Nc1ncc(C(F)(F)F)c(N)n1)c1cc2cccc(F)c2o1 [Compound 71] ?
a: 30

q: Returns the measured pest or weed control at 125 g/ha for the input molecule. Input: C[C@@H](Nc1ncc(C(F)(F)F)c(N)n1)c1cc2c(F)cccc2s1 [Compound 61]
a: 50

q: Recorded pest or weed control at 125 g/ha for C[C@@H](Nc1ncc(C(F)(F)F)c(N)n1)c1cc2c(F)cccc2o1 [Compound 73] , please?
a: 90

q: pest or weed control at 125 g/ha lookup needed for C[C@@H](Nc1ncc(C(F)(F)F)c(N)n1)c1coc2ccccc12 [Compound 52] , thanks.
a: 60

q: Reported pest or weed control at 125 g/ha, molecule C[C@@H](Nc1ncc(C(F)(F)F)c(N)n1)c1cc2cccc(F)c2s1 [Compound 75] : ____
a: 0

----------
test system: pigweed (Amaranthus retroflexus); test: Test A postemergence, pigweed; type: in vivo; conditions: 125 g ai/ha, 0 to 100 scale, 0 no effect, 100 complete control
Observed property: Plant response rating, Pigweed
The reply should be a number, written without any unit.

q: Which Plant response rating, Pigweed reading was recorded for the compound CC[C@@H](Nc1ncc(C(F)(F)F)c(N)n1)c1coc2ccccc12 [Compound 80] ?
a: 100

q: # get_value(readout='Plant response rating, Pigweed', item= Cc1nc(NC(C)c2coc3ccccc23)nc(N)c1C(F)(F)F (stereo not shown) [Compound 106] )
a: 70

q: Param item = CC(Nc1ncc(C(F)(F)F)c(N)n1)c1cc2c(Cl)cccc2o1 (stereo not shown) [Compound 100] ; retrieve measured Plant response rating, Pigweed.
a: 100

q: Any idea what its Plant response rating, Pigweed is? The compound is Cc1ccc2c([C@H](Nc3ncc(C(F)(F)F)c(N)n3)C3CC3)coc2c1 [Compound 90]
a: 60

q: Bench note: what Plant response rating, Pigweed did C[C@H](Nc1ncc(C(F)(F)F)c(N)n1)c1cc2ccc(F)cc2s1 [Compound 47] show?
a: 20

q: Reported Plant response rating, Pigweed, compound CC[C@H](Nc1ncc(C(F)(F)F)c(N)n1)c1cc2ccccc2s1 [Compound 44] : ____
a: 0

q: I'd like to know its Plant response rating, Pigweed. The compound in question is Cc1cccc2oc(C(C)Nc3ncc(C(F)(F)F)c(N)n3)cc12 (stereo not shown) [Compound 101]
a: 100

q: Plant response rating, Pigweed lookup needed for CC[C@H](Nc1ncc(C(F)(F)F)c(N)n1)c1cc2ccc(F)cc2o1 [Compound 64] , thanks.
a: 20

q: What value of Plant response rating, Pigweed has been reported for the following compound? CC(Nc1nc(N)c(C(F)(F)F)c(C(F)(F)F)n1)C1Cc2ccccc2C1 (racemic) [Compound 69]
a: 20

q: Requested read-out: Plant response rating, Pigweed. Entry: Nc1nc(N[C@H](c2coc3ccccc23)C2CC2)ncc1C(F)(F)F [Compound 78]
a: 60
